- test_target: Internal ribosome entry site (IRES)
- experimental_protocol: Binding affinity to HCV IRES subdomain IIa RNA assessed as reduction in FRET signal by FRET assay
pEC50: −log10 of the molar value.
parameter: pEC50

Q: For the compound NC1=NC(c2cn[nH]c2-c2cccc(O)c2)n2c(nc3ccccc32)N1 (stereo unspecified) , what pEC50 is on record?
Result: ≤ 3.00
